Where do the numbers come from? From ChEMBL document CHEMBL1126685.

# Species on record: Cavia porcellus
# measurement-notes: Effective concentration required in vitro for tracheal muscle (from male Hartley guinea pigs) relaxation
# Type: functional
# recorded-conditions: Trachea
pEC50: −log10 of the molar value.
measure: pEC50

structure-string: CCCn1c(=O)n(CCCN(C)C)c(=O)c2[nH]cnc21
measure: pEC50
value: 4.69

(P) CCCn1c(=O)n(C)c(=O)c2c1ncn2CCC#N
(Q) CCCn1c(=O)n(CCN(C)C)c(=O)c2[nH]cnc21
Task: Would you let me know which has the greater pEC50 value, P or Q ? Write down the label of the entry you select.
Result: Q
(Q: 5.57, P: 4.56)

---

# system-tested: cyclic AMP phosphodiesterase (guinea pig)
# measurement-notes: Inhibition of cyclic AMP-phosphodiesterase ( PDE) in the supernatant of tracheal muscle homogenate
measure: Ki (µM)

structure-string: CCCn1c(=O)n(CCCOC)c(=O)c2[nH]cnc21
display-unit: µM
value: 48.7
--
structure-string: CCCn1c(=O)n(C)c(=O)c2c1ncn2CCO
display-unit: µM
value: 28.7

(A) C=CCCn1cnc2c1c(=O)n(C)c(=O)n2CCC
(B) CCCn1c(=O)n(CCC(N)=O)c(=O)c2[nH]cnc21
(C) CCCn1c(=O)n(C)c(=O)c2c1ncn2CCOCC
(D) CCCn1c(=O)n(CCO)c(=O)c2[nH]cnc21
Task: Form: Sort by [Ki] Order [ ascending ] # answer = labels listed in requested order
Result: D, A, B, C
(D: 14.1 µM, A: 29.9 µM, B: 56.3 µM, C: 136 µM)

---

# measurement-notes: Bronchoselectivity expressed as ratio of stimulatory activity in the right atrium (EC15) to relaxant activity in the tracheal muscle (EC50)
# Format: functional, Cardiac atrium
The reader will find reported Selectivity values listed item by item below.
Reply: number alone, nothing else.

Use these answered entries as a reference point.
structure-string: CCCn1cnc2c1c(=O)n(C)c(=O)n2CCC
value: 20
//
structure-string: CCCn1c(=O)n(CCC#N)c(=O)c2[nH]cnc21
value: 2.5
//
structure-string: CCCn1c(=O)n(C)c(=O)c2c1ncn2CCOC
value: 2.8

Task: # Selectivity lookup, item CCCn1c(=O)n(C)c(=O)c2c1ncn2CCN(C)C
Result: 1

Task: Also CCCn1c(=O)n(C)c(=O)c2c1ncn2CC(N)=O , if possible.
Result: 1

Task: Would you kindly repeat that for CCCn1c(=O)n(CCC(N)=O)c(=O)c2[nH]cnc21 ?
Result: 2.4

Task: Same for C=CCCn1c(=O)c2[nH]cnc2n(CCC)c1=O
Result: 22.5

Task: What about this compound? CCCn1c(=O)n(C)c(=O)c2c1ncn2CCCN(C)C
Result: 1

Task: Can you check CCCn1c(=O)n(CC)c(=O)c2[nH]cnc21 next?
Result: 4.7

Task: Now give it for CCCn1c(=O)n(C)c(=O)c2c1ncn2CCC(C)=O too.
Result: 8.2

Task: Another: CCCn1c(=O)n(C)c(=O)c2c1ncn2CCOCC
Result: 21.7

Task: Another compound to check: CCCn1c(=O)n(C)c(=O)c2c1ncn2CC(C)=O
Result: 19.7

---

# Organism: Cavia porcellus
# measurement-notes: Effective concentration required in vitro for tracheal muscle (from male Hartley guinea pigs) relaxation
# Type: functional
# recorded-conditions: Trachea
measure: EC50 (µM)

Would you please look over these solved cases?
structure-string: CCCn1c(=O)n(CCC(=O)O)c(=O)c2[nH]cnc21
display-unit: µM
value: 21.2

structure-string: CCCn1c(=O)n(CCCOC)c(=O)c2[nH]cnc21
display-unit: µM
value: 2.9

structure-string: CCCn1c(=O)n(CCC#N)c(=O)c2[nH]cnc21
display-unit: µM
value: 1.7

(1) CCCn1c(=O)n(C)c(=O)c2c1ncn2CCC(C)=O
(2) CCCn1c(=O)n(CCO)c(=O)c2[nH]cnc21
Task: // which entry has the larger EC50 value, 1 or 2 ? Give the label under which the chosen entry appears.
Result: 1
